Biological target: rhCYP17A1 (Homo sapiens)
Construct: purchased Cypex
Sequence (P05093 1-508): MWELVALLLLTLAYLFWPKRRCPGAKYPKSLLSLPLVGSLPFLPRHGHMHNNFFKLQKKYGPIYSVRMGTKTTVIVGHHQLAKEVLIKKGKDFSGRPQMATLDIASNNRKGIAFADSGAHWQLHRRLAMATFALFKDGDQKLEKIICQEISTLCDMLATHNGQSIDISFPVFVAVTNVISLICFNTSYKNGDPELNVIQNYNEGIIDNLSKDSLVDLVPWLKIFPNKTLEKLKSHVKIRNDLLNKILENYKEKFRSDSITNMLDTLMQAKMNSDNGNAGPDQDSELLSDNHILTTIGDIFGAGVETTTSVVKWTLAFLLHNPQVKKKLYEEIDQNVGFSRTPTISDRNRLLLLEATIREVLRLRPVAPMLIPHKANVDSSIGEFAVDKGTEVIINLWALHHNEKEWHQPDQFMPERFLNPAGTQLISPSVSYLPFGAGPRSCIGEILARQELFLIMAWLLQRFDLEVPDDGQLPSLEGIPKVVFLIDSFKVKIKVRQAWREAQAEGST
Test: Inhibition of CYP17A1, progesterone to 17-α-hydroxyprogesterone, mass spectrometry
Format: biochemical
Conditions: rhCYP17A1, 150 nM progesterone, 15 minutes at 37° C.; read-out: CYP17A1 IC50
outcome-measure: IC50

[[record]]
molecule = "CC1Cc2ncn(-c3ccc(C#N)cc3)c2C(=O)O1 (single isomer, unassigned) [Compound 16A]"
study_system = "rhCYP17A1 (Homo sapiens)"
measured_value = "> 20 µM"

[[record]]
molecule = "CC1(C)Cc2ncn(-c3ccc(C#N)cc3Cl)c2C(=O)O1"
study_system = "rhCYP17A1 (Homo sapiens)"
measured_value = "> 20 µM"

[[record]]
molecule = "CC1(CO)Cc2ncn(-c3cccc(F)c3Cl)c2C(=O)O1 (single isomer, unassigned) [Compound 34B]"
study_system = "rhCYP17A1 (Homo sapiens)"
measured_value = "> 20 µM"

[[record]]
molecule = "CC1(C)Cc2ncn(-c3ccc(C#N)c(F)c3)c2C(=O)O1"
study_system = "rhCYP17A1 (Homo sapiens)"
measured_value = "> 20 µM"

[[record]]
molecule = "Cc1cc(-n2cnc3c2C(=O)OC(C)(CO)C3)ccc1C#N (single isomer, unassigned) [Compound 39A]"
study_system = "rhCYP17A1 (Homo sapiens)"
measured_value = "> 20 µM"

[[record]]
molecule = "CC1(CO)Cc2ncn(-c3ccc4c(c3)CCO4)c2C(=O)O1 (single isomer, unassigned) [Compound 42B]"
study_system = "rhCYP17A1 (Homo sapiens)"
measured_value = "> 20 µM"

[[record]]
molecule = "CC1(C)Cc2ncn(-c3ccc(C#N)c(Cl)c3)c2C(=O)O1"
study_system = "rhCYP17A1 (Homo sapiens)"
measured_value = "> 20 µM"


----------
Known IC50 of a selection of molecules
biological target: cortisol synthase (CYP11B1) (Macaca fascicularis); assay: Inhibition of cortisol synthesis, cynomolgus adrenal mitochondria, 11-deoxycortisol as substrate; type: biochemical, cynomolgus monkey; details: cynomolgus adrenal mitochondria, 150 units of CYP11B1, 11-deoxycortisol as substrate; read-out: Cortisol Inhibition IC50
outcome-measure: IC50 (µM)

[[record]]
molecule = "CN1C(=O)CCc2cc(-n3cnc4c3C(=O)OC(C)(C)C4)ccc21"
relation = "="
measured_value = 40

[[record]]
molecule = "CC1(CO)Cc2ncn(-c3ccc4c(c3)CCO4)c2C(=O)O1 (single isomer, unassigned) [Compound 42A]"
relation = ">"
measured_value = 30

[[record]]
molecule = "CC1Cc2ncn(-c3ccc(C#N)cc3)c2C(=O)O1 (single isomer, unassigned) [Compound 16B]"
relation = "="
measured_value = 35

[[record]]
molecule = "N#Cc1ccc(-n2cnc3c2C(=O)OCC3)cc1"
relation = "="
measured_value = 82

[[record]]
molecule = "CC1(CO)Cc2ncn(-c3cccc(Cl)c3F)c2C(=O)O1 (single isomer, unassigned) [Compound 35B]"
relation = ">"
measured_value = 30

[[record]]
molecule = "CN1C(=O)CCc2cc(-n3cnc4c3C(=O)OC(C)(CO)C4)ccc21 (single isomer, unassigned) [Compound 40A]"
relation = ">"
measured_value = 30

[[record]]
molecule = "CC1(C)Cc2ncn(C3Cc4ccccc4C3)c2C(=O)O1"
relation = "="
measured_value = 25

[[record]]
molecule = "CC1(CO)Cc2ncn(-c3cccc(F)c3Cl)c2C(=O)O1 (single isomer, unassigned) [Compound 34B]"
relation = "="
measured_value = 19

[[record]]
molecule = "CC1Cc2ncn(-c3ccc(Cl)c(Cl)c3)c2C(=O)O1 (centres unmarked)"
relation = "="
measured_value = 6

[[record]]
molecule = "CC1(CO)Cc2ncn(C3Cc4ccccc4C3)c2C(=O)O1 (centres unmarked)"
relation = ">"
measured_value = 30

[[record]]
molecule = "CC1(CO)Cc2ncn(-c3ccc(Cl)c(Cl)c3)c2C(=O)O1 (single isomer, unassigned) [Compound 30A]"
relation = "="
measured_value = 9

[[record]]
molecule = "CC1(C)Cc2ncn([C@H]3CC[C@H](C#N)CC3)c2C(=O)O1"
relation = "="
measured_value = 16

[[record]]
molecule = "O=C1OC(CO)Cc2ncn(-c3ccc(Cl)cc3)c21 (centres unmarked)"
relation = ">"
measured_value = 100

[[record]]
molecule = "Cc1cc(C#N)ccc1-n1cnc2c1C(=O)OC(C)(CO)C2 (single isomer, unassigned) [Compound 31B]"
relation = "="
measured_value = 24

[[record]]
molecule = "CC1(CO)Cc2ncn(-c3ccc4c(c3)CCO4)c2C(=O)O1 (single isomer, unassigned) [Compound 42B]"
relation = ">"
measured_value = 30

[[record]]
molecule = "CC1(C)Cc2ncn(-c3ccc(Cl)c(Cl)c3)c2C(=O)O1"
relation = "="
measured_value = 1.2

[[record]]
molecule = "CC1(C)Cc2ncn(-c3ccc(C#N)cc3F)c2C(=O)O1"
relation = "="
measured_value = 7.1

